Field: Solubility in cyclopentanone. Provide a value for each of the compounds that follow.
Assay: Solubility in cyclopentanone
Type: physicochemical
Settings: solvent cyclopentanone
Provide the measurement as a number trailed by its unit.

Input line: Determine from records and report Solubility in cyclopentanone for CCCCCCCCCCCCc1ccc(/N=N/c2cc3sc(/N=N/c4ccc(N(CC)CC)cc4)nc3s2)cc1 [Compound (6), reference compound]
Output line: 0.59% by mass

Input line: Determine from records and report Solubility in cyclopentanone for CCCCCC(=O)OCCCCOC(=O)c1ccc(/N=N/c2cc3sc(/N=N/c4ccc(N(CC)CC)cc4)nc3s2)cc1 [Compound (5)]
Output line: 1.2% by mass

Input line: Determine from records and report Solubility in cyclopentanone for CCCCCCCCCC(=O)OCCc1ccc(/N=N/c2cc3sc(/N=N/c4ccc(N(CC)CC)cc4)nc3s2)cc1 [Compound (8), reference compound]
Output line: 0.50% by mass

Input line: Determine from records and report Solubility in cyclopentanone for CCCCC(CC)C(=O)OCCc1ccc(/N=N/c2cc3sc(/N=N/c4ccc(N(CC)CC)cc4)nc3s2)cc1 (centres unmarked) [Compound (3)]
Output line: 6.0% by mass

Input line: Determine from records and report Solubility in cyclopentanone for CCCOC(=O)c1ccc(/N=N/c2cc3sc(/N=N/c4ccc(N(CC)CC)cc4)nc3s2)cc1 [Compound (7), reference compound]
Output line: 0.19% by mass

Input line: Determine from records and report Solubility in cyclopentanone for CCN(CC)c1ccc(/N=N/c2nc3sc(/N=N/c4ccc(CCC(=O)OCCC(C)CCCC(C)C)cc4)cc3s2)cc1 (centres unmarked) [Compound (2)]
Output line: 4.5% by mass

Input line: Determine from records and report Solubility in cyclopentanone for CCCCOC(=O)CCC(=O)OCCc1ccc(/N=N/c2cc3sc(/N=N/c4ccc(N(CC)CC)cc4)nc3s2)cc1 [Compound (1)]
Output line: 1.6% by mass

Input line: Determine from records and report Solubility in cyclopentanone for CCN(CC)c1ccc(/N=N/c2nc3sc(/N=N/c4ccc(CCOC(=O)CCC(=O)OCCC(C)CCCC(C)C)cc4)cc3s2)cc1 (centres unmarked) [Compound (4)]
Output line: 5.4% by mass

Each recorded value in this set is attributed to patent US20180265707A1.
